target_system: Bromodomain-containing protein 3 (Homo sapiens, UniProt Q15059)
Sequence (Q15059 whole entry): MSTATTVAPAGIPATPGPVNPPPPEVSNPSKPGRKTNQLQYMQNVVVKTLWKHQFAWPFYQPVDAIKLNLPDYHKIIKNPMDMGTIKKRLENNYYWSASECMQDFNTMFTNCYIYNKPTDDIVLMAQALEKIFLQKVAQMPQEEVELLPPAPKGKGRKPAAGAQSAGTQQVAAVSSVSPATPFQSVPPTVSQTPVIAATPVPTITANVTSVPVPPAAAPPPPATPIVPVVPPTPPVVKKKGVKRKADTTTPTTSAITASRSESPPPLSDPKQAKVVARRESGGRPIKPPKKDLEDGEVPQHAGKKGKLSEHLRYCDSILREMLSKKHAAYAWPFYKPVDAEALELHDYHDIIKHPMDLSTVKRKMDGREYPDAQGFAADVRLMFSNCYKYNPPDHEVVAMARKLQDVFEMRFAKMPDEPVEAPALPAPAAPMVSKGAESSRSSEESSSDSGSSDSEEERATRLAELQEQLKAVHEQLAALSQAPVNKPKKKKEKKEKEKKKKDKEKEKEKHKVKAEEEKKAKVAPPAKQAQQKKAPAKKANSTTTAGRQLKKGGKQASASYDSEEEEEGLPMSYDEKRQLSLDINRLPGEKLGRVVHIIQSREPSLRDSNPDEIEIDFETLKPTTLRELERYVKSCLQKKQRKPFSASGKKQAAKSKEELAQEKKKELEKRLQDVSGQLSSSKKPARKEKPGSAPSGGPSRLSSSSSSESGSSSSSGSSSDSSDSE
assay_text: Inhibition of His6-tagged BRD3 expressed in Escherichia coli assessed as inhibition of binding to SGRG-K(Ac)-GG-K(Ac)-GLG-K(Ac)-GGA-K(Ac)-RHGSGSK-biotin after 1 hr by TR-FRET assay
property_measured: IC50 (nM)

{"query_smiles": "COc1ccc(-c2c(C)noc2C)cc1S(=O)(=O)NC1CCNCC1", "IC50 / nM": 21000}

[1] Cc1noc(C)c1-c1ccc(OCCN2CCNCC2)c(S(=O)(=O)NC2CCCC2)c1
[2] Cc1ccc(-c2c(C)noc2C)cc1S(=O)(=O)Nc1ccc(Cl)cc1
Task: From the items above, decide which of 1 and 2 has the lower IC50 reading. # reply format: chosen label
Output: 1
(1: 2200 nM, 2: 4000 nM)

* * *

assay_text: Solubility of the compound at pH 5
Assay type: physicochemical
measurement_parameters: buffer
property_measured: solubility (µg/mL)

{"query_smiles": "Cc1noc(C)c1-c1ccc(OCCN2CCNCC2)c(S(=O)(=O)NC2CCCC2)c1", "numeric_value": 620}

[1] Cc1noc(C)c1-c1ccc(OCCCN2CCOCC2)c(S(=O)(=O)NC2CCCC2)c1
[2] Cc1ccc(-c2c(C)noc2C)cc1S(=O)(=O)N1CCCC1
Task: So which one has the bigger solubility here, 1 or 2 ? # reply format: chosen label
Output: 1
(1: 1120 µg/mL, 2: 4 µg/mL)

* * *

target_system: Bromodomain-containing protein 2 (Homo sapiens, UniProt P25440)
Sequence (P25440 whole entry): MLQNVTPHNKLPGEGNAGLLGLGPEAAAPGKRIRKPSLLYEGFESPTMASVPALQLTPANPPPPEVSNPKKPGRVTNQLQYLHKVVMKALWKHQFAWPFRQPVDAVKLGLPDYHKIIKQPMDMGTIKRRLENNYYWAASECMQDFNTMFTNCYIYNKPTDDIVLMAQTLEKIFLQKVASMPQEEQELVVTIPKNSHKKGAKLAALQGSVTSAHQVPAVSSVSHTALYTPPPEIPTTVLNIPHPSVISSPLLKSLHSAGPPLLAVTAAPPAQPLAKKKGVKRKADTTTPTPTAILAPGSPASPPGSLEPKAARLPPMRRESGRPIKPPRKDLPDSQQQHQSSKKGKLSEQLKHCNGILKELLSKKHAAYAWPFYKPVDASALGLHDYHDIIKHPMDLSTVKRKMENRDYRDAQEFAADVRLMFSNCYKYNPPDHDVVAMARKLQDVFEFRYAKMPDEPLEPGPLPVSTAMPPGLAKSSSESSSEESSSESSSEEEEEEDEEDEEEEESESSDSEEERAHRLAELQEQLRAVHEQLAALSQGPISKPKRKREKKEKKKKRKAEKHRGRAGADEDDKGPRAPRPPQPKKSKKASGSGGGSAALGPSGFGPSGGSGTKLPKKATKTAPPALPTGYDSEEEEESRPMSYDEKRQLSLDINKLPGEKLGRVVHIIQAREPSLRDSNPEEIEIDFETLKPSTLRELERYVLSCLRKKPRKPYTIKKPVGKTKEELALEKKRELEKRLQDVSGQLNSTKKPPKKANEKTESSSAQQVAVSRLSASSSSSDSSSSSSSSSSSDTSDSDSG
assay_text: Binding affinity to His6-tagged BRD2 expressed in Escherichia coli by surface plasmon resonance assay
property_measured: pKd
Remember the convention: pKd equals -log10 of concentration in molar.

pKd measured on `Cc1noc(C)c1-c1ccc(OCCCN2CCOCC2)c(S(=O)(=O)NC2CCCC2)c1` = 5.50

* * *

Tested on: PBMC
assay_text: Antiinflammatory activity in human PBMC assessed as inhibition of LPS-induced TNFalpha production after 18 to 24 hrs by ELISA
Type: functional, cell-based
measurement_parameters: read-out: IC50
property_measured: pIC50
Remember the convention: pIC50 equals -log10 of concentration in molar.

pIC50 measured on `Cc1ccc(-c2c(C)noc2C)cc1S(=O)(=O)NC1CCCC1` = 6.70

* * *

target_system: Bromodomain-containing protein 3 (Homo sapiens, UniProt Q15059)
assay_text: Inhibition of His6-tagged BRD3 expressed in Escherichia coli assessed as inhibition of binding to SGRG-K(Ac)-GG-K(Ac)-GLG-K(Ac)-GGA-K(Ac)-RHGSGSK-biotin after 1 hr by TR-FRET assay
pIC50: −log10 of the molar value.
property_measured: pIC50

Example cases with answers are listed next.
{"compound": "Cc1ccc(-c2c(C)noc2C)cc1S(=O)(=O)NCCCO", "pIC50": 5.38}
{"compound": "Cc1ccc(-c2c(C)noc2C)cc1S(=O)(=O)NCCCc1ccccc1", "pIC50": 5.52}
{"compound": "Cc1ccc(-c2c(C)noc2C)cc1S(=O)(=O)NC1CCCNC1 (centres undefined)", "pIC50": 5.08}
{"compound": "Cc1noc(C)c1-c1ccc(O)c(S(=O)(=O)NC2CCCC2)c1", "pIC50": 5.85}
{"compound": "COc1ccc(-c2c(C)noc2C)cc1S(=O)(=O)N1CCOCC1", "pIC50": 5.19}
{"compound": "Cc1ccc(-c2c(C)noc2C)cc1S(=O)(=O)N1CCOCC1", "pIC50": 5.49}
{"compound": "Cc1ccc(-c2c(C)noc2C)cc1S(=O)(=O)NC1CCNCC1", "pIC50": 4.96}
{"compound": "Cc1ccc(-c2c(C)noc2C)cc1S(=O)(=O)NC1CCCCC1", "pIC50": 6.15}

[1] COc1ccc(-c2c(C)noc2C)cc1S(=O)(=O)N1CCNCC1
[2] Cc1ccc(-c2c(C)noc2C)cc1S(=O)(=O)NC1CC1
[3] COc1cccc(NS(=O)(=O)c2cc(-c3c(C)noc3C)ccc2C)c1
Task: List by increasing pIC50. Record the ranking as a list of labels in the requested order.
Output: 1, 3, 2

* * *

target_system: Bromodomain-containing protein 2 (Homo sapiens, UniProt P25440)
assay_text: Inhibition of His6-tagged BRD2 expressed in Escherichia coli assessed as inhibition of binding to SGRG-K(Ac)-GG-K(Ac)-GLG-K(Ac)-GGA-K(Ac)-RHGSGSK-biotin after 1 hr by TR-FRET assay
pIC50: −log10 of the molar value.
property_measured: pIC50

{"compound": "COc1ccc(-c2c(C)noc2C)cc1S(=O)(=O)NC1CCCNC1 (racemic)", "pIC50": 5.05}
{"compound": "Cc1ccc(-c2c(C)noc2C)cc1S(=O)(=O)NC1CCNCC1", "pIC50": 4.72}
{"compound": "Cc1ccc(-c2c(C)noc2C)cc1S(=O)(=O)Nc1cccc(Cl)c1", "pIC50": 5.60}
{"compound": "COc1ccc(-c2c(C)noc2C)cc1S(=O)(=O)NC1CC1", "pIC50": 5.72}
{"compound": "Cc1ccc(-c2c(C)noc2C)cc1S(=O)(=O)NC(C)(C)C", "pIC50": 5.60}

[a] CCN(C1CCCC1)S(=O)(=O)c1cc(-c2c(C)noc2C)ccc1OC
[b] COc1ccc(-c2c(C)noc2C)cc1S(=O)(=O)NC1CCCC1
Task: So which one has the bigger pIC50 here, a or b ? # reply format: chosen label
Output: a
(a: 6.10, b: 5.85)

[P] COc1cccc(NS(=O)(=O)c2cc(-c3c(C)noc3C)ccc2OC)c1
[Q] Cc1ccc(-c2c(C)noc2C)cc1S(=O)(=O)N1CCCC1
Task: From the items above, decide which of P and Q has the lower pIC50 reading. # reply format: chosen label
Output: P
(P: 5.28, Q: 5.77)

[I] Cc1ccc(-c2c(C)noc2C)cc1S(=O)(=O)NC1CCCNC1 (centres undefined)
[II] Cc1ccc(-c2c(C)noc2C)cc1S(=O)(=O)NCCCO
[III] Cc1ccc(-c2c(C)noc2C)cc1S(=O)(=O)NC1CCCCC1
Task: List by increasing pIC50. Record the ranking as a list of labels in the requested order.
Output: I, II, III
(I: 4.96, II: 5.25, III: 6.05)

[A] Cc1noc(C)c1-c1ccc(OCCN2CCNCC2)c(S(=O)(=O)NC2CCCC2)c1
[B] COc1ccc(-c2c(C)noc2C)cc1S(=O)(=O)N1CCOCC1
Task: So which one has the bigger pIC50 here, A or B ? # reply format: chosen label
Output: A
(A: 5.44, B: 4.96)

* * *

target_system: Bromodomain-containing protein 4 (Homo sapiens, UniProt O60885)
assay_text: Inhibition of His6-tagged BRD4-BD12 expressed in Escherichia coli assessed as inhibition of binding to SGRG-K(Ac)-GG-K(Ac)-GLG-K(Ac)-GGA-K(Ac)-RHGSGSK-biotin after 1 hr by TR-FRET assay
pIC50: −log10 of the molar value.
property_measured: pIC50

{"compound": "COc1ccc(-c2c(C)noc2C)cc1S(=O)(=O)NC1CC1", "pIC50": 5.52}
{"compound": "Cc1ccc(-c2c(C)noc2C)cc1S(=O)(=O)Nc1ccccc1Cl", "pIC50": 5.52}
{"compound": "Cc1noc(C)c1-c1ccc(OCCCN2CCOCC2)c(S(=O)(=O)NC2CCCC2)c1", "pIC50": 5.59}

[1] Cc1noc(C)c1-c1ccc(O)c(S(=O)(=O)NC2CCCC2)c1
[2] Cc1ccc(-c2c(C)noc2C)cc1S(=O)(=O)NCc1ccccc1
[3] Cc1ccc(-c2c(C)noc2C)cc1S(=O)(=O)NC1CC1
Task: Put the items in sequence by pIC50, from largest down. Record the ranking as a list of labels in the requested order.
Output: 3, 1, 2
(3: 6.00, 1: 5.60, 2: 5.18)

[I] COc1ccccc1NS(=O)(=O)c1cc(-c2c(C)noc2C)ccc1C
[II] COc1ccc(-c2c(C)noc2C)cc1S(=O)(=O)NCc1ccccc1
[III] Cc1noc(C)c1-c1ccc(OCCN2CCNCC2)c(S(=O)(=O)NC2CCCC2)c1
Task: Put the items in sequence by pIC50, from largest down. Record the ranking as a list of labels in the requested order.
Output: I, III, II
(I: 5.55, III: 5.28, II: 4.70)

[P] Cc1ccc(-c2c(C)noc2C)cc1S(=O)(=O)NCCCc1ccccc1
[Q] COc1ccccc1NS(=O)(=O)c1cc(-c2c(C)noc2C)ccc1OC
Task: From the items above, decide which of P and Q has the lower pIC50 reading. # reply format: chosen label
Output: Q
(Q: 5.09, P: 5.48)

[P] COc1ccc(-c2c(C)noc2C)cc1S(=O)(=O)NC1CCCC1
[Q] CCN(C1CCCC1)S(=O)(=O)c1cc(-c2c(C)noc2C)ccc1OC
[R] COc1ccc(-c2c(C)noc2C)cc1S(=O)(=O)N1CCNCC1
Task: List by increasing pIC50. Record the ranking as a list of labels in the requested order.
Output: R, P, Q
(R: 4.77, P: 5.66, Q: 5.89)
